Reference for the values: patent US20120114665A1

Kd reference
TESTED_SYSTEM: T1, human RANKL (receptor activator of NF-κB ligand) (human, UniProt O14788 140-317, limits assumed)
T1 construct: also called hRANKL; hRANKL native trimer
T1 sequence: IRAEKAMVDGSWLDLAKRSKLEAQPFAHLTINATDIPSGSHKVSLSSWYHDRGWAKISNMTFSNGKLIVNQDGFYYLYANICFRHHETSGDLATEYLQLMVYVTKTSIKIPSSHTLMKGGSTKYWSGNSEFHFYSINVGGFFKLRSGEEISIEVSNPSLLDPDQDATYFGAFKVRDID
ASSAY_TEXT: SPR (BIACORE 2000), antibody captured on anti-hFc, hRANKL injected
Write the value in nM as a bare number.

2E11 (antibody, V domains shown, From direct isolation of splenocytes; captured on anti-hFc; also called H4H006N) VH: QVQLVQSGGGVVQPGRSLRLSCAASGFTFGGYGMHWVRQAPDKGLEWVAVISYDGNNKYYVDSVKGRFTISRDNSKNMLYLQMNSLRAEDTAVYYCAKCLSGTYWGYGMDGWGQGTTVTVSS VL: DIQMTQSPSTLSASVGDRVTITCRASQSISNWLAWYQQKPGKAPKLLIYKASNLQSGVPSRFSGSGSGTEFTLTISSLQPDDFATYYCQQYNNYSWTFGQGTKVEIK :: 0.016
2E12 (antibody, V domains shown, From direct isolation of splenocytes; captured on anti-hFc; also called H4H007N) VH: QVQLVQSGGGVVQPGRSLRLSCAASGFTFSGYGMHWVRQAPGMGLEWVAVISYDGINKYYADSVKGRFTISRDNSKNTLFLQMNSLRAEDTALYYCAKCLSGTYWGYGMDVWGQGTTVTVSS VL: AIQMTQSPSTLSASVGDRVTITCRASQSISSWLAWYQLKPGKAPKLLIYKASSLESGVPSRFGGSGSGTEFTLTISSLQPDDFATYYCQHYNSYSWTFGQGTKVEIK :: 0.0957
2H12 (antibody, V domains shown, From direct isolation of splenocytes; captured on anti-hFc; also called H4H010N) VH: QVQLVQSGGGVVQPGRSLRLSCAASGFTFSGYGMHWVRQAPGKGLDWVTVISYDGSNKHYADSVKGRFTISRDNSKNTLYLQMSSLGPEDTAVYYCAKSLSGTYWGYGMDVWGQGTTVTVSS VL: AIQMTQSPSTLSASVGDRVTITCRASQNISSWLAWYQQKPGKAPKLLIYKASSLESGVPSRFSGSGSGTEFTLTVSSLQPDDFATYYCQQYNRYSWTFGQGTKVEIK :: 0.0331

Now examine the next entry.
Any idea what its Kd is? The binder is 1F8 (antibody, V domains shown, From direct isolation of splenocytes; captured on anti-hFc; also called H4H002N) VH: QVQLVQSGGGVVQPGRSLRLSCAASGFTFTGYGMHWVRQAPDKGLEWVAVISYDGTNKYYVDSVKGRFTISRDNSQNTLYLQMNSLRAEDTAVYYCAKCLSGTYWGYGMDVWGQGTTVTVSS VL: AIQMTQSPSTLSASVGDRVTITCRASRSINSWLAWYQQKPGKAPKLLIYKASSLESGVPSRFSGSGSGTEFTLTISSLQPDDFASYYCQQYNNYSWTFGQGTKVEIK
0.00785
